Target: T1, LIN7C, Q9NUP9
T1 sequence (Q9NUP9 88-185, limits assumed, looked up): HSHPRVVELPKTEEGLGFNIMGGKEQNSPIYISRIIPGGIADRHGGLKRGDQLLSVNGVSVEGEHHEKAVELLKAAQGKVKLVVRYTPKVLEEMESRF
Assay: holdup assay
Parameters: key: below the threshold = too weak to quantify, mostly under pKd 3.1 to 4
Settings: plain residues with an end cap or a label only (N-terminal biotin on a linker: ahx)

BINDER | pKd
ADENEQVSAV [RAPGEF6, Q8TEU7] | below the threshold
VNENQKEYFF [CNTNAP4, Q9C0A0] | below the threshold
SKKNELFSNL [NHERF1, O14745] | below the threshold
HSATSVHTSV [MTMR1, Q13613] | below the threshold
YNSFLSVTTV [PDZRN3, Q9UPQ7] | 3.47
AKPQPVDSWV [ARVCF, O00192] | below the threshold
